This section presents compounds with their documented half-life at 0.5 μM values.
# experiment notes: Stability of compounds in human liver microsomes
# Assay type: in vitro ADME
# assay context: both sexes, pH 7.4; 0.5 μM compound, 0.5 mg/mL human liver microsomes, 37° C.; maxed at 420 minutes; read-out: HLM Elimination half-life (t1/2, min)
# Description: A test compound (0.5 μM) was incubated with pooled mixed gender liver microsomes from humans (0.5 mg/mL total protein) at 37° C. in the presence of an NADPH-generating system containing 50 mM, pH 7.4 potassium phosphate buffer, 3 mM magnesium chloride, 1 mM EDTA, 1 mM NADP, 5 mM glusose-6-phosphate, and 1 Unit/mL glucose-6-phosphate dehydrogenase. […] Aliquots of the resulting supernatant fractions were analyzed by LC-MS/MS monitoring for depletion of parent compound. […]

Before answering, review these 2 worked examples.
1. COc1cc2c(cc1OCC1(C(F)F)CC1)CCN1C[C@@H](CC(C)(C)C)[C@H](O)C[C@H]21	≥ 420 min
2. COc1cc2c(cc1OC[C@@H](O)C(F)(F)F)CCN1C[C@@H](CC(C)(C)C)[C@H](O)C[C@H]21	≥ 420 min

Switching to the query record.
# input Which value of half-life at 0.5 μM has been reported for COc1cc2c(cc1OCC(C)(F)F)CCN1C[C@@H](CC(C)(C)C)[C@@H](O)C[C@H]21 in the records?
# output ≥ 420 min

###

# experiment notes: Stability of compounds in human liver microsomes
# Type: in vitro ADME
# assay context: scaled from HLM half-life (Obach method), human
reported metric: HLM Predicted Systemic Clearance

Look over these answered cases.
1) COc1cc2c(cc1OC1COC1)CCN1C[C@@H](CC(C)(C)C)[C@H](O)C[C@H]21	≤2.59 mL/min/kg
2) COc1cc2c(cc1OCC13CC(C(F)(F)F)(C1)C3)CCN1C[C@@H](CC(C)(C)C)[C@H](O)C[C@H]21	≤2.59 mL/min/kg

With those in mind, consider the next molecule.
# input Form field: reported HLM Predicted Systemic Clearance of COc1cc2c(cc1OCC(F)F)CCN1C[C@@H](CC(C)(C)C)[C@H](O)C[C@H]21
# output ≤2.59 mL/min/kg

###

# experimental target: human VMAT2 (Homo sapiens (Human))
# Sequence (Q05940 whole entry): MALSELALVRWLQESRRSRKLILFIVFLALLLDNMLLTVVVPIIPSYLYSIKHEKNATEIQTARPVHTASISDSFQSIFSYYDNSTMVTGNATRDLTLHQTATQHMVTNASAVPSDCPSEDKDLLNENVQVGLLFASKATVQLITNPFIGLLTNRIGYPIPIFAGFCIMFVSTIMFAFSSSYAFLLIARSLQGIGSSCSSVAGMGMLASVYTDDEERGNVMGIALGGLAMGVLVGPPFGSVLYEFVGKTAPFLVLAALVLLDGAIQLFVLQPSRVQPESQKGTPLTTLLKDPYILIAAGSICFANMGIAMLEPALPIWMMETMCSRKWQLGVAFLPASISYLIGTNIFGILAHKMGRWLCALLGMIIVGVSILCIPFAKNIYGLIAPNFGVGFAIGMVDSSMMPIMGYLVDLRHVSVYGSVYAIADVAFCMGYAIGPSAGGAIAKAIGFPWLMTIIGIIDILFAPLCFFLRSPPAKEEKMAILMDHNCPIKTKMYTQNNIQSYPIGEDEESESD
# experiment notes: VMAT2 radioligand binding, 3H-dihydrotetrabenazine competition on human platelet homogenate
# assay context: 10 nM 3H-dihydrotetrabenazine, human platelet homogenate, 25° C., 90 minutes; read-out: VMAT2 Ki
reported metric: Ki (nM)
Hi! Could you send only the number? It should be in nM, unit omitted.

Some compounds with recorded Ki:
1) COCCOc1cc2c(cc1OC)[C@H]1C[C@@H](O)[C@H](CC(C)(C)C)CN1CC2	14
2) COc1cc2c(cc1OCC(O)C(F)F)CCN1C[C@@H](CC(C)(C)C)[C@H](O)C[C@H]21 (stereo partly shown)	9.4
3) COc1cc2c(cc1O[C@H]1CCOC1)CCN1C[C@@H](CC(C)(C)C)[C@H](O)C[C@H]21	12
4) COc1cc2c(cc1OCC1(F)CC1)CCN1C[C@@H](CC(C)(C)C)[C@@H](O)C[C@H]21	13

# input What measured Ki goes with COc1cc2c(cc1OCC1COC1)CCN1C[C@@H](CC(C)(C)C)[C@H](O)C[C@H]21 ?
# output 14

# input Next record, please: COc1cc2c(cc1OCCCCC(F)(F)F)CCN1C[C@@H](CC(C)(C)C)[C@H](O)C[C@H]21
# output 6.1

# input Same again, this time with COc1cc2c(cc1OCC13CC(C(F)(F)F)(C1)C3)CCN1C[C@@H](CC(C)(C)C)[C@H](O)C[C@H]21
# output 14

###

Listed molecules paired with reported Predicted Max. Bioavailability (% F)
# experiment notes: Stability of compounds in human liver microsomes
# Assay type: in vitro ADME
# assay context: predicted from HLM data, human
Give the value, in units of % F, as a plain number.

Example molecules with recorded Predicted Max. Bioavailability (% F):
1) COc1cc2c(cc1OCCc1ccc(F)cc1)CCN1C[C@@H](CC(C)(C)C)[C@H](O)C[C@H]21	15
2) COc1cc2c(cc1OC(C)C)CCN1C[C@@H](CC(C)(C)C)[C@H](O)C[C@H]21	48
3) COc1cc2c(cc1OCC1CCN(C#N)CC1)CCN1C[C@@H](CC(C)(C)C)[C@H](O)C[C@H]21	66
4) COc1cc2c(cc1O[C@H]1CCOC1)CCN1C[C@@H](CC(C)(C)C)[C@H](O)C[C@H]21	73
5) COc1cc2c(cc1OC[C@@H](C)OC)CCN1C[C@@H](CC(C)(C)C)[C@H](O)C[C@H]21	50

Now, please, on to the next molecule.
# input Any idea what its Predicted Max. Bioavailability (% F) is? The molecule is COc1cc2c(cc1OCC1CC(O)(C(F)(F)F)C1)CCN1C[C@@H](CC(C)(C)C)[C@H](O)C[C@H]21 (some centres unmarked)
# output 76

###

Recorded CLint scaled at 0.5 μM values for a group of molecules are listed next.
# experiment notes: Stability of compounds in human liver microsomes
# Type: in vitro ADME
# assay context: both sexes, liver microsomes, pH 7.4; calculated from HLM half-life, human; read-out: HLM Scaled Intrinsic Clearance

1) COc1cc2c(cc1OC[C@H](C)O)CCN1C[C@@H](CC(C)(C)C)[C@H](O)C[C@H]21 [Compound 4-114]	≤ 0.178 L/h/kg

# input Record request: CLint scaled at 0.5 μM value, item COc1cc2c(cc1OC[C@H](O)C(F)(F)F)CCN1C[C@@H](CC(C)(C)C)[C@H](O)C[C@H]21 [Compound 4-50]
# output ≤ 0.178 L/h/kg

# input And then COc1cc2c(cc1OCC1(C(F)F)CC1)CCN1C[C@@H](CC(C)(C)C)[C@H](O)C[C@H]21 [Compound 4-57] , what is it?
# output ≤ 0.178 L/h/kg

This collection of values is drawn from patent US11718618B2.
